Parameter IC50: see the listing below.
SYSTEM NAME: NV 3CL protease (Norovirus, UniProt Q83883)
Sequence (Q83883 1101-1281 limits assumed): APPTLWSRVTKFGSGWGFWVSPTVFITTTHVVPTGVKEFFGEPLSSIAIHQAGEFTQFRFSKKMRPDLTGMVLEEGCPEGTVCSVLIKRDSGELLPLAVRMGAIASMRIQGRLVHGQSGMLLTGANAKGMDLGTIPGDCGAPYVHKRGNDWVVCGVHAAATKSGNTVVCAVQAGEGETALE
ASSAY SUMMARY: biochemical

COMPOUND	SYSTEM NAME	IC50
O=C(N[C@@H](CC1CCCCC1)C(=O)N[C@@H](CC1CCNC1=O)C(O)P(=O)(OCc1ccccc1)OCc1ccccc1)OCc1ccccc1 (mixture of isomers)	NV 3CL protease (Norovirus, UniProt Q83883)	> 50 µM
CC(C)C[C@H](NC(=O)OCc1ccccc1)C(=O)N[C@@H](CC1CCNC1=O)C(O)P(=O)(O)O (mixture of isomers)	NV 3CL protease (Norovirus, UniProt Q83883)	> 50 µM
CC(C)C[C@@H]1NC(=O)[C@@H](NC(=O)OCc2ccccc2)Cc2cn(nn2)CCCNC(=O)CC[C@@H](C=O)NC1=O	NV 3CL protease (Norovirus, UniProt Q83883)	5.1 µM
O=C(N[C@@H](CC1CCCCC1)C(=O)N[C@@H](CC1CCNC1=O)C(O)P(=O)(OCC(F)(F)F)OCC(F)(F)F)OCc1ccccc1 (mixture of isomers)	NV 3CL protease (Norovirus, UniProt Q83883)	> 50 µM
CCOP(=O)(OCC)C(O)[C@H](CC1CCNC1=O)NC(=O)[C@H](CC(C)C)NC(=O)OCc1ccccc1 (mixture of isomers)	NV 3CL protease (Norovirus, UniProt Q83883)	> 50 µM
COP(=O)(OC)C(O)[C@H](CC1CCNC1=O)NC(=O)[C@H](CC(C)C)NC(=O)OCc1ccccc1 (mixture of isomers)	NV 3CL protease (Norovirus, UniProt Q83883)	> 50 µM
COP(=O)(OC)C(O)[C@H](CC1CCNC1=O)NC(=O)[C@H](CC1CCCCC1)NC(=O)OCc1ccccc1 (mixture of isomers)	NV 3CL protease (Norovirus, UniProt Q83883)	> 50 µM
CCOP(=O)(OCC)C(O)[C@H](CC1CCNC1=O)NC(=O)[C@H](CC1CCCCC1)NC(=O)OCc1ccccc1 (mixture of isomers)	NV 3CL protease (Norovirus, UniProt Q83883)	> 50 µM
CCCCOP(=O)(OCCCC)C(O)[C@H](CC1CCNC1=O)NC(=O)[C@H](CC1CCCCC1)NC(=O)OCc1ccccc1 (mixture of isomers)	NV 3CL protease (Norovirus, UniProt Q83883)	> 50 µM

====

SYSTEM NAME: EV71 3C protease (Human enterovirus 71, UniProt Q66478)
Sequence (Q66478 1549-1731 limits assumed): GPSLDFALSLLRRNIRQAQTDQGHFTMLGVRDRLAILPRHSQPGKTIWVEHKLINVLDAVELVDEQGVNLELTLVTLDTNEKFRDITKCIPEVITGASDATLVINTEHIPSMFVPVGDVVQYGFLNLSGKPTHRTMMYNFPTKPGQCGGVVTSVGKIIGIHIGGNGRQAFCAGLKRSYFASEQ

SMILES	VALUE UNITS	IC50
CC(C)C[C@@H]1NC(=O)[C@@H](NC(=O)OCc2ccccc2)Cc2cn(nn2)CCCNC(=O)CC[C@@H](C=O)NC1=O	nM	1800
